target: hPAD4 (Homo sapiens); experiment: hPAD4 RFMS (RapidFire mass spectrometry) PAD4 inhibition assay; type: biochemical; conditions: hPAD4 enzyme, RFMS readout; read-out: hPAD4 RFMS IC50
Sequence (Q9UM07 whole entry): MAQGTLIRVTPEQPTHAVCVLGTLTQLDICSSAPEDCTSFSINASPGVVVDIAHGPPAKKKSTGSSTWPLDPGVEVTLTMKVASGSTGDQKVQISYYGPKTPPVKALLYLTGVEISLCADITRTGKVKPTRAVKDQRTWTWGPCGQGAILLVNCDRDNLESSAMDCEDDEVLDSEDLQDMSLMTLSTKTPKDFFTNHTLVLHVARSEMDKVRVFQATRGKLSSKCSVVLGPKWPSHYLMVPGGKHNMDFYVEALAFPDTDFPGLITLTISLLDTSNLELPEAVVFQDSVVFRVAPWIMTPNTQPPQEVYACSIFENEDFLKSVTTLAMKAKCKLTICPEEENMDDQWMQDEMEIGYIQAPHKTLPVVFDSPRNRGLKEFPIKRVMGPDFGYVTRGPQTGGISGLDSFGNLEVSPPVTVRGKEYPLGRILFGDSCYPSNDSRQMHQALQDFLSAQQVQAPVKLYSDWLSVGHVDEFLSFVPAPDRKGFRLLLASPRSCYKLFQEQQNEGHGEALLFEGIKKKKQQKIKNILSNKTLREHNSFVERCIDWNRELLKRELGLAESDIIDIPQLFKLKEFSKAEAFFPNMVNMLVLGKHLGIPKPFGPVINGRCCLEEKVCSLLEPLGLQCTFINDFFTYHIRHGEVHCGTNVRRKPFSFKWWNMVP
assay_endpoint: IC50

molecule	system_under_test	IC50
[2H]C([2H])([2H])OC1(C)CC(Cn2c(-c3cc4cccnc4n3CC3CC3)nc3cc(C(=O)N4C[C@H]5CC[C@@H]4[C@@H]5N)cc(OC)c32)C1 (stereo partly drawn)	hPAD4 (Homo sapiens)	< 1 µM

Query string: I have this molecule here, COc1cc(C(=O)N2CC3CCC2C(N)C3)cc2nc(-c3cc4cccnc4n3CC3CC3)n(C)c12 (stereo not drawn) [Compound I-129] , and I need its recorded IC50.
Result string: 1 to 5 µM

Query string: Consider next the molecule `COc1cc(C(=O)N2CCC[C@@H](N)C2)cc2nc(-c3cc4cc(C#N)cnc4n3CC3CC3)n(C)c12` in the same way.
Result string: < 1 µM

Query string: Moving on to the next molecule: `COc1cc(C(=O)N2C[C@H]3C[C@H](OC)[C@@H]2[C@@H]3N)cc2nc(-c3cc4cccnc4n3CC3CC3)n(C)c12`
Result string: 1 to 5 µM

Query string: And for `Cn1c(-c2cc3cccnc3n2CC2CC2)nc2cc(C(=O)N3CCC[C@@H](N)C3)cc(F)c21` ?
Result string: < 1 µM

Query string: What do we get for `COc1cc(C(=O)N2C[C@H]3CC[C@H]2[C@H]3N)cc2nc(-c3cc4cc(NCCC5CC5)ccc4n3CC3CC3)n(C)c12` ?
Result string: < 1 µM

====

target: hPAD4 (Homo sapiens); experiment: hPAD4 RFMS (RapidFire mass spectrometry) PAD4 inhibition assay; assay type: biochemical; conditions: hPAD4 enzyme, RFMS readout; read-out: hPAD4 RFMS IC50
pIC50: −log10 of the molar value.
Entries annotated with measured pIC50

compound	system_under_test	pIC50
COc1ccc2cc(-c3nc4cc(C(=O)N5C[C@H]6CC[C@@H]5[C@@H]6N)cc(OC)c4n3C)n(CC3CC3)c2n1 [Compound I-188]	hPAD4 (Homo sapiens)	> 6.00

Query string: Fill in the blank: the reported pIC50 of CCn1c(-c2nc3cc(C(=O)N4C[C@H]5CC[C@@H]4[C@@H]5N)cc(OC)c3n2C[C@H]2C[C@@](C)(O)C2)cc2cccnc21 [Compound I-155] is ____.
Result string: > 6.00

Query string: Field entry: CO[C@H]1CCN(C(=O)c2ccc3c(c2)nc(-c2cc4cccnc4n2CC2CC2)n3C)C[C@H]1N (single isomer, unassigned) [Compound I-65]
Result string: < 5.00

Query string: Okay, and COc1cc(C(=O)N2CC3COCC3(CN)C2)cc2nc(-c3cc4cccnc4n3CC3CC3)n(C)c12 (racemic) [Compound I-96] ?
Result string: < 5.00

Query string: Next compound up: CCn1c(-c2cc3cccnc3n2CC2CC2)nc2cc(C(=O)N3CCC[C@@H](N)C3)cc(OC)c21 [Compound I-119]
Result string: > 6.00

Query string: Same thing, different compound: Cn1c(-c2cc3cccnc3n2CC2CC2)nc2cc(C(=O)N3CCC4(CCCN4)C3)ccc21 (stereo not drawn) [Compound I-39]
Result string: < 5.00

====

molecular target: mPAD4 (Mus musculus); assay: mPAD4 RFMS PAD4 inhibition assay; format: biochemical; details: mPAD4, RFMS readout; pIC50=−log(IC50); read-out: mPAD4 RFMS pIC50 (converted);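 further: grade E means pIC50 at most 4 and F means pIC50 4.0 to 5.0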
Sequence (Q9Z183 whole entry): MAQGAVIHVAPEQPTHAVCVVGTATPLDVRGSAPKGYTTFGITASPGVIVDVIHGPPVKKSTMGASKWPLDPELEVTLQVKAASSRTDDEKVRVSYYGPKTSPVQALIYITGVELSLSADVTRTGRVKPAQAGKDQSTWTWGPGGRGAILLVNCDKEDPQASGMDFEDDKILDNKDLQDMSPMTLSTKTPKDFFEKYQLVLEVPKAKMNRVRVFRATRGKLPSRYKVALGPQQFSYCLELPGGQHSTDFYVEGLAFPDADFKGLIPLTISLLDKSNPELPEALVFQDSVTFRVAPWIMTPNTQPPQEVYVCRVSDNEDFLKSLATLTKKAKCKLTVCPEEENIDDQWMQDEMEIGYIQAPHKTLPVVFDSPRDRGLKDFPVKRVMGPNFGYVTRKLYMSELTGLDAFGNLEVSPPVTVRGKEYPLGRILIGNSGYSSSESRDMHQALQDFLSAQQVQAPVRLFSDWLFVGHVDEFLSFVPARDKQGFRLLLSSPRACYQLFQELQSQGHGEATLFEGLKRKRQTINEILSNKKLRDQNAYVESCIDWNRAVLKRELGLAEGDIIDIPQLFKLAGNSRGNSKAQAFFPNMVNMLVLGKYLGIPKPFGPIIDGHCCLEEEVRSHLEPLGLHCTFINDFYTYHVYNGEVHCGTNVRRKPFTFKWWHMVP
# maps each entry to its IC50

Some solved entries appear below for comparison.
compound	reported
COc1cc(C(=O)N2C[C@H]3CC[C@@H]2[C@@H]3N)cc2nc(-c3cc4cccnc4n3CC3CC3)n(C[C@H]3C[C@@H](OC)C3)c12	< 1000 nM
CCc1ccc2cc(-c3nc4cc(C(=O)N5CCC[C@@H](N)C5)cc(OC)c4n3CC)n(CC3CC3)c2n1	< 1000 nM
COc1cc(C(=O)N2CC(O)(C3CCCCN3)C2)cc2nc(-c3cc4cccnc4n3CC3CC3)n(C)c12 (racemic)	10000 to 100000 nM
COCCn1c(-c2nc3cc(C(=O)N4C[C@H](N)CC[C@@H]4C)cc(OC)c3n2C)cc2cccnc21	1000 to 10000 nM
COc1cc(C(=O)N2C[C@H]3CC[C@@H]2[C@@H]3N)cc2nc(-c3cc4cccnc4n3CCF)n(C)c12	1000 to 10000 nM

Query string: Reported IC50, compound `CCn1c(-c2nc3cc(C(=O)N4C[C@H]5CC[C@@H]4[C@@H]5N)cc(OC)c3n2C)cc2ccc(C)nc21` : ____
Result string: < 1000 nM

Query string: Now give it for `COc1cc(C(=O)N2CCC[C@@H](N)C2)cc2nc(-c3cc4cccnc4n3CCF)n(C)c12` too.
Result string: < 1000 nM

meta.source: patent US9963448B2
